Below, each entry is listed alongside its reported inhibition at 10 µM.
tested on: human lung cancer cell line A549; assay: In vitro anti-proliferative activity (CCK8), A549; type: cell-based; details: A549, 10 μM, 48 hours, CCK8, class symbol, read-out: A549 (Lung cancer) Inh % in 10 μM

See these solved cases before continuing.
[
  {
    "COMPOUND": "CN(C)C1CCCN(Cc2ccc(C(=O)NO)cc2)c2ccccc21 (stereo not drawn)",
    "inhibition at 10 µM": "70 to 80%"
  },
  {
    "COMPOUND": "COc1ccc2c(c1)CCCCN2Cc1ccc(C(=O)NO)cc1",
    "inhibition at 10 µM": "70 to 80%"
  },
  {
    "COMPOUND": "COc1ccc(C2CC2)c2c1CCN(Cc1ccc(C(=O)NO)cc1)CC2",
    "inhibition at 10 µM": "50 to 70%"
  }
]

Exercise: Look up inhibition at 10 µM for this compound: O=C(NO)c1ccc(CN2CCCOc3ccccc32)cc1
Solution: 50 to 70%

Exercise: For O=C(NO)c1ccc(CN2CCCCc3ccc(Cl)cc32)cc1 , what is its reported inhibition at 10 µM?
Solution: 70 to 80%

Exercise: Tell me the measured inhibition at 10 µM of O=C(NO)c1ccc(CN2CCCC(O)c3ccccc32)cc1 (stereo not drawn) , please.
Solution: 50 to 70%

* * *

Biological target: HDAC6 (Homo sapiens)
Construct: purchased Biovision Company
Sequence (Q9UBN7 1-1215): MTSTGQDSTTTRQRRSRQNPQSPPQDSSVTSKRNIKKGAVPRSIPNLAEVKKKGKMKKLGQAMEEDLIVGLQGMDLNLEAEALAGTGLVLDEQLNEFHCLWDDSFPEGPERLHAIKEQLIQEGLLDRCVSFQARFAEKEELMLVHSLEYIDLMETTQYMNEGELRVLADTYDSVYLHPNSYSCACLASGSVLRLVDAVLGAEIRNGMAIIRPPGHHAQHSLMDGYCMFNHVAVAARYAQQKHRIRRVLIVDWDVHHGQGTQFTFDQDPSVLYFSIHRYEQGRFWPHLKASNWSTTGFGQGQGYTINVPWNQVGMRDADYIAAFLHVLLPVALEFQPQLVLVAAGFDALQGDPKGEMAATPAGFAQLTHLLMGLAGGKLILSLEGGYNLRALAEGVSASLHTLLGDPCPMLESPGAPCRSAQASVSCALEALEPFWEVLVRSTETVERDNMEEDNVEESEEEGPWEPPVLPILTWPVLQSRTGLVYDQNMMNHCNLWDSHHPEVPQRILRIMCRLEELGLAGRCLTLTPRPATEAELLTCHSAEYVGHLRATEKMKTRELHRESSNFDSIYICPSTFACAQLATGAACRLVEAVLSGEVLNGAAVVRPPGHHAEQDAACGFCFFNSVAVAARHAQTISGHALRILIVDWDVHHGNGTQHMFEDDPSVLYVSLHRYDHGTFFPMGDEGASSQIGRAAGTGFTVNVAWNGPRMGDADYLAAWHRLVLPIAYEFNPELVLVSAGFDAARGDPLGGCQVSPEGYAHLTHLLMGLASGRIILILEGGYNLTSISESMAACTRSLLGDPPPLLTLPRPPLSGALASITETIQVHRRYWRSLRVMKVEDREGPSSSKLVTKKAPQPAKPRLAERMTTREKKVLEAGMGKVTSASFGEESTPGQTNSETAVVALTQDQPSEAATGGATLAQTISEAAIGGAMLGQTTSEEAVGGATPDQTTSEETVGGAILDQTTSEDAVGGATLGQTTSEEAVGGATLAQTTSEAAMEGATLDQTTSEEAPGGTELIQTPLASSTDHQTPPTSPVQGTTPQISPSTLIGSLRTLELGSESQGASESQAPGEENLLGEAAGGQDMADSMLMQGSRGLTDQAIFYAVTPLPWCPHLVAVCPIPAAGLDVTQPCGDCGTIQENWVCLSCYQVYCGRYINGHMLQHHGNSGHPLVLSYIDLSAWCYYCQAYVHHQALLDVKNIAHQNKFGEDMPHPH
Experiment: HDAC6 inhibitor screening kit (Biovision), in vitro inhibitory activity
Assay type: biochemical
Lab note: anything with IC50 below 30 nM is marked 1; values at 30 nM or higher are marked 0.

Before answering, review these 4 worked examples.
[
  {
    "COMPOUND": "COc1cc2c(cc1OC)N(Cc1ccc(C(=O)NO)cc1)CCCC2 [Compound T-9]",
    "LABEL_CLASS": 1
  },
  {
    "COMPOUND": "COc1cccc2c1CCCCN2Cc1ccc(C(=O)NO)cc1 [Compound T-7]",
    "LABEL_CLASS": 1
  },
  {
    "COMPOUND": "O=C(NO)c1ccc(CN2CCCCc3ccc(Cl)cc32)cc1 [Compound T-2]",
    "LABEL_CLASS": 1
  },
  {
    "COMPOUND": "O=C(NO)c1ccc(CN2CCCCc3ccc(N4CCCCC4)cc32)cc1 [Compound T-14]",
    "LABEL_CLASS": 0
  }
]

Exercise: In plain terms, does O=C(NO)c1ccc(CN2CCCC(=O)c3ccccc32)cc1 [Compound T-18] come in under 30 nM for IC50?
Solution: 1

Exercise: hey, is IC50 for COc1ccc(Br)c2c1CCN(Cc1ccc(C(=O)NO)cc1)CC2 [Compound T-27] lower than 30 nM or not?
Solution: 1
